These entries and their values trace back to the PolyMetriX glass transition set.

Category key, based on recorded glass transition temperature: low-valued: < 30 °C; mid-valued: ≥ 30 °C and < 100 °C; high-valued: ≥ 100 °C

*CC(*)OC(=O)c1ccc(Br)cc1 (repeat unit) :: mid-valued
*O[Si](*)(C)CCCCCCCCCCC(=O)OCCC(F)(F)C(F)(F)C(F)(F)C(F)(F)C(F)(F)C(F)(F)C(F)(F)C(F)(F)F (repeat unit) :: low-valued
*CCN(CCOC(=O)NCCCCCCNC(=O)O*)c1ccccc1 (repeat unit) :: mid-valued
*c1ccc(Oc2ccc(C(C)(C)c3ccc(Oc4ccc(-c5nnc(*)c6c(-c7ccc(F)cc7)c(-c7ccc(F)cc7)c(-c7ccc(F)cc7)c(-c7ccc(F)cc7)c56)cc4)cc3)cc2)cc1 (repeat unit) :: high-valued
*CC(C)(COC(=O)NCCCCCCNC(=O)O*)C(=O)O (repeat unit) :: low-valued
*c1ccc(/C=C(\c2ccc(OC)cc2)c2ccc(/C(=C/c3ccc(N(*)c4ccccc4)cc3)c3ccc(OC)cc3)cc2)cc1 (repeat unit) :: high-valued
*CC(*)c1ccc(OCCC(C)C)cc1 (repeat unit) :: mid-valued
*CC1CCC(COP(=O)(/N=N/c2ccc(C(=O)c3ccc(/N=N/P(=O)(O*)OC)cc3)cc2)OC)CC1 (repeat unit) :: mid-valued
